Test system: human naive CD8+ T-cells
Assay: pSTAT5 ELISA in isolated naive CD8+ T-cells
Type: cell-based
Conditions: rested naive CD8+ T-cells, 15 min exposure, pSTAT5 ELISA
Bridge positions count the residues as written; N and C are the ends. Ends that are not written are not given here.
observable: pEC50
Lab note: report pEC50 as minus log10 of the concentration in molar units, number only.

Entry Ac-GWGIPWCTLDPGSLQCAWLGKHGGGGSGGVVCQDWEGVELCWQGG (disulfide 7-16, 32-41) [MDK1472] , pEC50 reported as 9.46

----------
System: human naive CD4+ T-cells
Assay: pSTAT5 ELISA in isolated naive CD4+ T-cells
Assay type: cell-based
Conditions: rested naive CD4+ T-cells, 15 min exposure, pSTAT5 ELISA
Protocol: We first assessed induction kinetics over a time course of compound exposure. Saturating concentrations of each of the compounds, previously determined to elicit maximum response of pSTAT5 signaling, were applied to the cells and pSTAT5 levels monitored for up to 2 hours. The resulting time-response profiles served to compare the kinetics of signal induction for the different compounds, and to determine Tmax for correct time of exposure in subsequent dose response determinations for each compound. […]
Bridge positions count the residues as written; N and C are the ends. Ends that are not written are not given here.
observable: pEC50
Lab note: report pEC50 as minus log10 of the concentration in molar units, number only.

Entry Ac-GWGIPWCTLDPGSLQCAWLGKHGGGGSGGVVCQDWEGVELCWQGG (disulfide 7-16, 32-41) [MDK1472] , pEC50 reported as 8.89
